Cited source for all entries: the supplement of paper PMC9170038

test system: MS2 coat protein; experiment: apparent KD of MS2 coat protein; designed switch direction (-1 OFF switch, 1 ON switch): 1; higher = weaker reporter binding; settings: input ligand: microRNA oligo, concentration not stated
value kind: apparent KD of MS2 coat protein (µM)
Give bare numbers, in µM.

Answered examples (5):
UGUUGUAUUACAGGAUAUCUAUUAUGUUUAUUUAGAGAAGGGUAUUCACAUGAGGAUCACCCAUGUAUAUACGAGGAAGUUGUG [JMF's solution 16] (Eterna round: R96, puzzle: Same State NG 1): 0.0375
GCUACCAUAGAAGCCAACAUGAGGAUCACCCAUGUAUGUUGGUAGGAUAUCGAUUGCAAAGCGAUCGAGAAGGGCUAAGGUAGC [Mat - Same State NG 3 - JL Mod - D83] (Eterna round: R96, puzzle: Same State NG 3): 0.13
UGGCUCAGAGCAGGAUAUAUGCGAUCACAUGAGGAUCACCCAUGUCUCGAGCUUCGGCUCGAGGCAUAGAAGGGCUCUGAGCCA [SSNG2/4-B2] (Eterna round: R96, puzzle: Same State NG 2): 0.0268
CUUUUUAAUGCAGGAUAUGAUCAACAUGAGGAUCACCCAUGUGGCGUUGUGAGUAGGGAGAGUGAUCAGAAGGGCAUCUCCUCG [SS-NG2-LRO08] (Eterna round: R96, puzzle: Same State NG 2): 0.0451
CUGCACCGUGGAGGAUAUGGGCUGAGGCCAGGACAACCCUGGCCAACAUGAGGAUCACCCAUGUCCCAGAAGGCCACAGUGCUA [Zaenmaxe] (Eterna round: R96, puzzle: Same State NG 2): 0.0867

Working through the 6 sequences below one at a time, give apparent KD of MS2 coat protein for each.
1. GCCAGUGCGAAACUCACAUGAGGAUCACCCAUGUGCGUUGAGUAGGAUAUCCGGCUACUCGAGGCGGAGAAGGACUGGGUACUG [Eternabot solution 14] (Eterna round: R96, puzzle: Same State NG 3)
2. UUGCGGAAUUAAGGAUAUUGAGUACAUAUGUUUAACAUGAGGAUCACCCAUGUGGGUUGCGGUAUCGAGAAGGUAAAUUACUAC [salish99_SSNG2_r04_802] (Eterna round: R96, puzzle: Same State NG 2)
3. AAAAGACAUGAGGAUCACCCAUGUCAAGACGUGGGAGGAUAUGCAUGGAAAACAUGCUGUGCAGAAGGCCCGUGUC [SS1 - 20] (Eterna round: R96, puzzle: Same State 1)
4. AGGCUCAGACGAGGAUAUAUGCGAUCACAUGAGGAUCACCCAUGUCUCGAGCUUCGGCUCGAGGCAUAGAAGGCGUCUGAGCCA [SSNG2/4-A1] (Eterna round: R96, puzzle: Same State NG 2)
5. GCUACGGACGUAGGAUAUGUAGGAUAUGGUGAGAGCUAAGCUUGGAAGUCACUUCAACCAGAAGGACAGAAGGACGCCGUGAGG [pwkr ssNG2 2FMN + F9.18] (Eterna round: R96, puzzle: Same State NG 2)
6. AUUUUGAAUGCAGGAUAUGAUUAACAUGAGGAUCACCCAUGUGGUGUUGUGAGUAAGGAGAGUGAUCAGAAGGGCAUUUUUUUU [JMF's solution 96] (Eterna round: R96, puzzle: Same State NG 2)

0.0123
0.0888
0.0166
0.0312
0.0134
0.452

Which value of apparent KD of MS2 coat protein has been reported for CCUUGUAGCGGAGGAUAUGGGCCUCACUCAGUCAAAGAGUGAGAAACAUGAGGAUCACCCAUGUCCCAGAAGGCCGCUGCAUGG [Ridizaer] (Eterna round: R96, puzzle: Same State NG 2) in the records? 0.0138
